Value source: paper PMC10609608

tested on: butyrylcholinesterase (BuChE) (Homo sapiens, UniProt P06276)
Sequence (P06276 29-602): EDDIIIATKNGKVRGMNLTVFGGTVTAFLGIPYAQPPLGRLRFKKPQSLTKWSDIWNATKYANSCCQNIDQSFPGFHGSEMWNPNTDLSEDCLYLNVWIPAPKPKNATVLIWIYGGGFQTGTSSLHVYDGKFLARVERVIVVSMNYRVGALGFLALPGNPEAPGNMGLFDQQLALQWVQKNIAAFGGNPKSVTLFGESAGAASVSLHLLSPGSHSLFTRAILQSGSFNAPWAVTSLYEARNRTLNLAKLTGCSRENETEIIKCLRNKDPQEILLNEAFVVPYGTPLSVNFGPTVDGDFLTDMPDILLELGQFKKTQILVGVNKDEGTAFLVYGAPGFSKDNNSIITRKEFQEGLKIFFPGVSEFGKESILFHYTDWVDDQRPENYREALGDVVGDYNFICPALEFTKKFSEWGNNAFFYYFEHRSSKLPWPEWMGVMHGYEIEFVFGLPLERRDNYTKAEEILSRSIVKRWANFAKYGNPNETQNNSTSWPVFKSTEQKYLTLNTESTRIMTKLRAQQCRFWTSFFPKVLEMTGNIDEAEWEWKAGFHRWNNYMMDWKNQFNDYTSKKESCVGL
pIC50: −log10 of the molar value.
Please enter 1 where pIC50 is greater than or equal to 5, and -1 where it is lower.

smiles string: COc1cccc(-c2coc(N/N=C(/CSc3nc4ccccc4[nH]3)c3ccc(Cl)cc3)n2)c1
assigned class: 1
--
smiles string: O=[N+]([O-])c1ccccc1-c1coc(N/N=C(/CSc2nc3ccccc3[nH]2)c2ccc(Cl)cc2)n1
assigned class: 1
--
smiles string: O=[N+]([O-])c1cccc(-c2coc(N/N=C(/CSc3nc4ccccc4[nH]3)c3ccc(Cl)cc3)n2)c1
assigned class: 1
--
smiles string: CN(C)c1ccc(/C(CSc2nc3ccccc3[nH]2)=N\Nc2nc(-c3ccc(Br)cc3)co2)cc1
assigned class: -1
